Data credit: patent US9556378B2

I'd be grateful if you could share measured Surface tension for these entries.
# Assay info: Surface tension, bubble pressure tensiometer
# Type: physicochemical
# Conditions: 25° C.
Answers are plain numbers, in mN/m.

{"columns": ["Molecule", "Measurement units", "Surface tension"],
 "data": [
  ["CCCCOCCOC(=O)CCC(C(=O)OCCOCCCC)N(CC(=O)OCCOCCCC)CC(=O)OCCOCCCC (centres unmarked)", "mN/m", 47.8],
  ["CCCCOC(=O)CCC(C(=O)OCCCC)N(CC(=O)OCCCC)CC(=O)OCCCC (centres unmarked)", "mN/m", 41.3],
  ["CCCCOC(=O)CN(CCN(CC(=O)OCCCC)CC(=O)OCCCC)CC(=O)OCCCC [EDTA 4 butyl ester, EDTA-tetrabutyl ester, reference compound]", "mN/m", 52.6]
]}

Field: Surface tension. Fill in for each record below.
1. CCCOC(=O)CN(CCN(CC(=O)OCCC)CC(=O)OCCC)CC(=O)OCCC [EDTA 4 propyl ester, EDTA-tetrapropyl ester, reference compound]
2. CCCOC(=O)CCC(C(=O)OCCC)N(CC(=O)OCCC)CC(=O)OCCC (centres unmarked)

### Response
[51.3, 69.2]

----------
# Assay info: Density, gravimetric (0.50 ml in weighted pipette)
# Format: physicochemical
# Conditions: 25° C.
Test readout: Density (g/mL)
One number for each entry, in g/mL.

Worked examples follow.
{"columns": ["Compound", "Recorded value"],
 "data": [
  ["CCCCOC(=O)CCC(C(=O)OCCCC)N(CC(=O)OCCCC)CC(=O)OCCCC (centres unmarked) [GLDA 4 butyl ester, GLDA-tetrabutyl ester]", 1.04],
  ["CCCOC(=O)CCC(C(=O)OCCC)N(CC(=O)OCCC)CC(=O)OCCC (centres unmarked) [GLDA 4 propyl ester, GLDA-tetrapropyl ester]", 1.11]
]}

Field: next compound
### Prompt Bench note: what Density did CCCCOCCOC(=O)CCC(C(=O)OCCOCCCC)N(CC(=O)OCCOCCCC)CC(=O)OCCOCCCC (centres unmarked) [GLDA 4 EGMBE, GLDA-tetraEMGBE ester] show?
### Response 1.06

----------
# Assay info: Viscosity of chelate esters, Brookfield DV-II viscometer, spindle 25
# Type: physicochemical
# Conditions: 25° C.
Can you tell me Viscosity for the items I'm about to list?
One number for each entry, in mPas.

Consider the reported Viscosity for these molecules:
{"columns": ["Molecule", "Recorded value"],
 "data": [
  ["CCCCOC(=O)CCC(C(=O)OCCCC)N(CC(=O)OCCCC)CC(=O)OCCCC (centres unmarked)", 38],
  ["CCCOC(=O)CCC(C(=O)OCCC)N(CC(=O)OCCC)CC(=O)OCCC (centres unmarked)", 178]
]}

Next item in the queue.
### Prompt If you can, please state the reported Viscosity value of CCCCOCCOC(=O)CCC(C(=O)OCCOCCCC)N(CC(=O)OCCOCCCC)CC(=O)OCCOCCCC (centres unmarked) .
### Response 67
